All values here come from paper PMC5658359.

- assayed_target: T1, human DCN1 (residues 58–259), N-terminal His6 tag (human, UniProt Q96GG9 58-259)
- T1 construct: DCN1 (defective in cullin neddylation 1), human, residues 58-259, cloned into pDEST17; residues 60-251 are visible in PDB 5UFI; also called defective in cullin neddylation 1; source: Rosetta2 cells, purified (Ni-NTA, Superdex 75); not shown: His6, N-terminal, kept
- T1 sequence (Q96GG9 58-259): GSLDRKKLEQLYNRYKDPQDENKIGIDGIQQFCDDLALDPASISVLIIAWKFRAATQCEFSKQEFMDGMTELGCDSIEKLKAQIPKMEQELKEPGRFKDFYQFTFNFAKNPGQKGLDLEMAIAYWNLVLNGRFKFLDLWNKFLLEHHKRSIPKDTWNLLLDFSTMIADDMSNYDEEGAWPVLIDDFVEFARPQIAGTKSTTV
- assay_info: fluorescence polarisation; competitive: peptide added to pre-incubated DCN1 (50 nM) and FAM-labelled small-molecule probe 46 (5 nM); 100 mM phosphate buffer pH 6.5, 0.02% Tween-20, 2% DMSO; room temperature, 30 min; Ki calculated from IC50
- stated_conditions: both partners purified
Primed or numbered codes have the meaning given here. Where no end group is shown, it is not given here. [ ]: non-standard residue; d: D form. Ala(benzothiazol-2-yl)′ = not defined here; 1Nal = N[C@@H](Cc1cccc2ccccc12)C(=O)O
Reported pKi values follow for various binders
Schema: pKi number; meaning minus log10 of the concentration expressed in molar units.

## Input Retrieve pKi measured for [1Nal]IKL [compound 22 (11 with the phenyl replaced by naphthalen-1-yl)] and print it.
## Output 3.45

## Input Retrieve pKi measured for [Ala(6-isopropyl-benzothiazol-2-yl)]IKL [compound 27 (26 with the 6-Cl replaced by an isopropyl group)] and print it.
## Output 8.30

## Input Retrieve pKi measured for [Ala(benzothiazol-2-yl)′]IKL [compound 24 (11 with the phenyl replaced by benzothiazol-2-yl)] and print it.
## Output 6.82
